# condition.label: in isopropyl acetate, 323.15 K
recorded.metric: solubility (mole fraction)
Lab note: jot down the number only; don't add units.

Incoming: What value of measured solubility (mole fraction) is listed for CC(C(=O)O)c1ccc(CC2CCCC2=O)cc1 (stereo unspecified) ?
Outgoing: 0.176

----------
# condition.label: in isobutyl acetate, 298.15 K
recorded.metric: solubility (mole fraction)
Lab note: jot down the number only; don't add units.

Incoming: What value of measured solubility (mole fraction) is listed for CC(C(=O)O)c1ccc(CC2CCCC2=O)cc1 (stereo unspecified) ?
Outgoing: 0.0451

----------
# condition.label: in n-propanol, 303.15 K
recorded.metric: solubility (mole fraction)
Lab note: jot down the number only; don't add units.

Incoming: What value of measured solubility (mole fraction) is listed for CC(C(=O)O)c1ccc(CC2CCCC2=O)cc1 (stereo unspecified) ?
Outgoing: 0.116

src = BigSolDB 2.1
